Source of measurements: patent US20120053168A1

molecular target: Rat α4β2 nAChR subtype (Rattus norvegicus, UniProt P09483+P12390); construct: from tissue; host or cells: rat cerebral cortex membranes (female Sprague-Dawley); experiment: [3H]nicotine radioligand binding, membranes from rat cortex; conditions: [3H]nicotine; "Failed HTS" = failed to bind sufficiently in high through-put screening to warrant Ki determination; read-out: Rat α4β2 Ki
Sequence (P09483 31-630): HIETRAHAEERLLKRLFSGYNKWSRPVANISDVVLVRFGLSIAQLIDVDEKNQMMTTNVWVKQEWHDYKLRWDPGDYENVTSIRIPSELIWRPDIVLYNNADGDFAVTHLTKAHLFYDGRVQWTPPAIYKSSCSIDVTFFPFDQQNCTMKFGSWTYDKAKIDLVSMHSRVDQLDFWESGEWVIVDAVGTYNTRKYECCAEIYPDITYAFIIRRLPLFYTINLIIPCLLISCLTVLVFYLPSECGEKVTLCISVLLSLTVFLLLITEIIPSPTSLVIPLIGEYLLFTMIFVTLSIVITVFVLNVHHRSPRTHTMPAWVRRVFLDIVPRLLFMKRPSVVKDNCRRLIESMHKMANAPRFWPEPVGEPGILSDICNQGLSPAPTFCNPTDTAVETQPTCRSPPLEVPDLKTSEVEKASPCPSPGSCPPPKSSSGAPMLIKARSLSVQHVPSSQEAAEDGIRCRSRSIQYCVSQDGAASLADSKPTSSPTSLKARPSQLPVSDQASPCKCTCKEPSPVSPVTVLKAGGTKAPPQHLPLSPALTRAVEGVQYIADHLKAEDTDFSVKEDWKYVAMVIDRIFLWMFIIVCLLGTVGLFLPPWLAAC
Sequence (P12390 25-500): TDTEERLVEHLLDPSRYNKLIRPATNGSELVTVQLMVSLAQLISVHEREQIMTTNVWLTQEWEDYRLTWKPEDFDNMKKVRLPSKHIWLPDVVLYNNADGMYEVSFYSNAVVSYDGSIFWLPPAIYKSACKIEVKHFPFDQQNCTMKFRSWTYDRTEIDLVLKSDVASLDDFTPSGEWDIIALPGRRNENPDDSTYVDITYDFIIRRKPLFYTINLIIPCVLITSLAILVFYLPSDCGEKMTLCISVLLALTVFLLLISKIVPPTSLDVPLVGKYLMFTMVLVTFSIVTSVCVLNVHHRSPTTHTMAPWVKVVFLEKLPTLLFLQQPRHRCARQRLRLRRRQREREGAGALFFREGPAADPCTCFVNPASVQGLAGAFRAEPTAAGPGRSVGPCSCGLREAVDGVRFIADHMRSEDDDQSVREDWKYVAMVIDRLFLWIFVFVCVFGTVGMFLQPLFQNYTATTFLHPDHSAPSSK
pKi: −log10 of the molar value.
In this section, each of the compounds is paired with its reported pKi.
metric.name: pKi

> print(dat)
                           compound  value.observed
1       c1cnc2cc3c(cc2c1)CCNCC3 [F]            8.52
2      Cc1ccc2cc3c(cc2n1)CCNCC3 [Q]            7.35
3      Cc1cnc2cc3c(cc2n1)CCNCC3 [E]            7.20
4  O=c1cnc2cc3c(cc2[nH]1)CCNCC3 [G]            6.92
5     COc1cnc2cc3c(cc2n1)CCNCC3 [H]            7.11
